A compilation of pKi values for Beta-secretase 1 (Homo sapiens) from the published literature.
Notebook: values listed as pKi are -log10 of the concentration (mol/L).

Study these solved cases before continuing.
- STRUCTURE SMILES: "CCc1nc(N2C[C@H]3C(=O)N(C)C(=N)N[C@@]3(c3ccc(Cl)s3)C2)nc(C)c1F"
  TARGET DESC: "Beta-secretase 1 (Homo sapiens)"
  pKi: 7.62
- STRUCTURE SMILES: "C[C@]1(F)CC(F)(F)[C@@](C)(c2cc(NC(=O)c3ccc(OC(F)F)cn3)ccc2F)N=C1N"
  TARGET DESC: "Beta-secretase 1 (Homo sapiens)"
  pKi: 7.85
- STRUCTURE SMILES: "COc1cnc(C(=O)Nc2ccc(F)c([C@@]3(C)N=C(N)[C@@](C)(F)C[C@@H]3F)c2)cn1"
  TARGET DESC: "Beta-secretase 1 (Homo sapiens)"
  pKi: 7.59
- STRUCTURE SMILES: "NC1=N[C@@](c2cc(NC(=O)c3ccc(Br)cn3)ccc2F)(C(F)F)C(F)(F)CC1"
  TARGET DESC: "Beta-secretase 1 (Homo sapiens)"
  pKi: 8.21
- STRUCTURE SMILES: "COc1nc(N2C[C@H]3C(=O)N(C)C(=N)N[C@@]3(c3cc(F)ccc3F)C2)nc(C2CC2)c1Cl"
  TARGET DESC: "Beta-secretase 1 (Homo sapiens)"
  pKi: 8.19

Prompt line: Would you kindly share the measured pKi for "Cc1nnc(-c2ccc(-c3cc(Cl)c([C@]4(C)CS(=O)(=O)N(C)C(=N)N4)s3)[nH]2)o1" ?
Response line: 8.09

Prompt line: Queued: "CN1C(=N)N[C@](C)(c2sc3c(-c4ccc(-c5nccs5)cc4)cccc3c2F)CS1(=O)=O"
Response line: 6.10

Prompt line: Input "[2H]C([2H])([2H])Oc1ccc(C(=O)Nc2ccc(F)c([C@]3(C)CC[C@@](F)(CF)C(N)=N3)c2)nc1"
Response line: 7.70

Prompt line: Request: "CN1C(=N)N[C@](C)(c2sc3c(-c4ccc(N5CCS(=O)(=O)CC5)cc4)cccc3c2F)CS1(=O)=O"
Response line: 5.19

Prompt line: One more compound: "CN1CC2(C1)C(=N)N[C@](C)(c1cc(NC(=O)c3ccc(Cl)cn3)ccc1F)CS2(=O)=O"
Response line: 8.66
